measurementTarget: MEK1 (Homo sapiens)
Sequence (Q02750 whole entry, species assumed): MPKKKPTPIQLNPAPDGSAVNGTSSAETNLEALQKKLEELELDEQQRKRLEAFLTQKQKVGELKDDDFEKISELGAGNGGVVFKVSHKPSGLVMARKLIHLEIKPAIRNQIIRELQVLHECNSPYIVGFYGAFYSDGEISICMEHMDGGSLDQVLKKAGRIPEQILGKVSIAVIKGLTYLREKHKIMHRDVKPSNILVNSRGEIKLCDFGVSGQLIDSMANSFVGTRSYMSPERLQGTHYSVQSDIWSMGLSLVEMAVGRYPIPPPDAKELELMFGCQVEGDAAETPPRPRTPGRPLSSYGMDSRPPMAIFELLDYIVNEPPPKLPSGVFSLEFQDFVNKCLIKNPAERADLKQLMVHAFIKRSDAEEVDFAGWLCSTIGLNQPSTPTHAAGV
pIC50: −log10 of the molar value.
quantityKind: pIC50

For CS(=O)(=O)O.Cn1cc(C2=C(c3cn(CCCSC(=N)N)c4ccccc34)C(=O)NC2=O)c2ccccc21 [Bisindolylmaleimide IX] , what is its reported pIC50?
< 4.35

----------
measurementTarget: Aurora A (Homo sapiens)
Sequence (O14965 whole entry): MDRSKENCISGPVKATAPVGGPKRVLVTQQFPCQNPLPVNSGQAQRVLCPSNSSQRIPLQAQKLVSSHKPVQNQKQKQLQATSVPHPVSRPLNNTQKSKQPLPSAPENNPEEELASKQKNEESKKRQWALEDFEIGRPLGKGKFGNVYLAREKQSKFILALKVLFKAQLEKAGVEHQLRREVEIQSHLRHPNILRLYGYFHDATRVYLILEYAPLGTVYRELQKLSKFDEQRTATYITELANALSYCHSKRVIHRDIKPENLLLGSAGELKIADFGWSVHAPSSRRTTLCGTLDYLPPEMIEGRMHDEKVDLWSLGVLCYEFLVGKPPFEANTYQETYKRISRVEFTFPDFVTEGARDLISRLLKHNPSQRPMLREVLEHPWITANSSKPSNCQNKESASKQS
quantityKind: IC50

For CS(=O)(=O)O.Cn1cc(C2=C(c3cn(CCCSC(=N)N)c4ccccc34)C(=O)NC2=O)c2ccccc21 [Bisindolylmaleimide IX] , what is its reported IC50?
> 45 µM

----------
measurementTarget: SYK (Homo sapiens)
pIC50: −log10 of the molar value.
quantityKind: pIC50

Enter reported pIC50 observed with SYK (Homo sapiens) for CS(=O)(=O)O.Cn1cc(C2=C(c3cn(CCCSC(=N)N)c4ccccc34)C(=O)NC2=O)c2ccccc21 [Bisindolylmaleimide IX]
< 4.35

----------
measurementTarget: Jak2 (Homo sapiens, UniProt O60674)
Sequence (O60674 whole entry, species assumed): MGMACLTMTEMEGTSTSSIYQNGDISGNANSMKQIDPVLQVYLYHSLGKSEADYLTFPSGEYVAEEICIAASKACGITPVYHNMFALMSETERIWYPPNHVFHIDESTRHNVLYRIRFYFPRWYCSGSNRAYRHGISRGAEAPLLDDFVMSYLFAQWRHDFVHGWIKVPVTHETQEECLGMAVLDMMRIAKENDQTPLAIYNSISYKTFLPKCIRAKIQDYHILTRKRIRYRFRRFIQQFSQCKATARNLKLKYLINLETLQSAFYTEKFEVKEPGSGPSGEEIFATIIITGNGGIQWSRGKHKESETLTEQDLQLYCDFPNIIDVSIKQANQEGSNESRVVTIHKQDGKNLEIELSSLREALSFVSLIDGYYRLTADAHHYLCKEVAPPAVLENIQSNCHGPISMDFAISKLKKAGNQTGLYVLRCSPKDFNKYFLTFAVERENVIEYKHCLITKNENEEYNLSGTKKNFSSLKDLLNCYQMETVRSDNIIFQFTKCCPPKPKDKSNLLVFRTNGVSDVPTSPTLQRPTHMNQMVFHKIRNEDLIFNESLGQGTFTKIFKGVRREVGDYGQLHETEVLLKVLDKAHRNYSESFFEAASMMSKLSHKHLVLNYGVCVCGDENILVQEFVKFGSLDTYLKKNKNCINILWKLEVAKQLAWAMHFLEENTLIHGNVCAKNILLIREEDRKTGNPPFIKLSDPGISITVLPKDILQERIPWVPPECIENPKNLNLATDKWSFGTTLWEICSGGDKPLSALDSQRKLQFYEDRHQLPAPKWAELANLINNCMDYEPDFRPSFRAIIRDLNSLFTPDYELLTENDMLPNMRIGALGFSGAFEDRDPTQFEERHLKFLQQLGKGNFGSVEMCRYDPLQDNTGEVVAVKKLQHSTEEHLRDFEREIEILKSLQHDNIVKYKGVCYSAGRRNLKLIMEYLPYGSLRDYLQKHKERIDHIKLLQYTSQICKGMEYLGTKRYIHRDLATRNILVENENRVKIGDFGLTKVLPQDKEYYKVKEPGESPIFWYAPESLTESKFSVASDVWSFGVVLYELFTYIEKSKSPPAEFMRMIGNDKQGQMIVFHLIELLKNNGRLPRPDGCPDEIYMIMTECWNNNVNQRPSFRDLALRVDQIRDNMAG
quantityKind: pIC50
Value format note: pIC50 is -log10 of concentration (mol/L); just state the number.

For CS(=O)(=O)O.Cn1cc(C2=C(c3cn(CCCSC(=N)N)c4ccccc34)C(=O)NC2=O)c2ccccc21 [Bisindolylmaleimide IX] , what is its reported pIC50?
5.01
